target: human Trypsin (Homo sapiens); experiment: Selectivity screening, human serine protease trypsin; type: biochemical; conditions: at 5 μM; read-out: inhibition of human Trypsin
Where a SMILES comes first, the peptide text is derived from it. [ ]: non-standard residue; d: D form. The star is where a group is joined. Palmitoyl = CCCCCCCCCCCCCCCC(=O)*; hPhe = N[C@@H](CCc1ccccc1)C(=O)O; β3hK = NCCCC[C@H](N)CC(=O)O
Property measured: inhibition at 5 µM

Sample answers from the record:
CCCCCCCCCCCCCCCC(=O)N[C@@H](CCCCN)CN1CCC[C@H]1C(=O)N[C@@H](C)C(=O)N[C@H](CCc1ccccc1)C(N)=O; < 10%
CCCCCCCCCCCCCCCC(=O)N[C@@H](CCCCN)CC(=O)N1CCC[C@H]1C(=O)N[C@@H](C)C(=O)N[C@@H](CCc1ccccc1)C(N)=O [compound 117] (Palmitoyl-[β3hK]PA[hPhe]-NH2); < 10%

Turning to the following molecule.
Quick check: inhibition at 5 µM of CCCCCCCCCCCCCCCC(=O)N[C@@H](CCCCN)C(=O)N[C@@H](C)C(=O)N[C@@H](C)C(=O)N[C@@H](Cc1c[nH]c2ccccc12)C(N)=O [compound 92] (Palmitoyl-KAAW-NH2) ? < 10%
